Source of measurements: patent US9353090B2

# assay-notes: physchem
# protocol-conditions: pH 6.8, aqueous buffer, kinetic from dmso stock, Solubility (pH 6.8)
assay-endpoint: solubility at 24 h

* CO[C@H]1CN(c2cccc(-c3cc(C)ccc3OCc3ccc4c(c3C)CCN(C3CCOCC3)C4)n2)CC[C@H]1C(=O)O [Compound 71] | 81 µg/mL
* CCc1cc(COc2c(C)cccc2-c2cccc(N3C[C@@H]4C[C@]4(C(=O)O)[C@H]3COC)n2)cc2c1CN(C1COC1)CC2 [Compound 54] | 81 µg/mL
* CO[C@H]1CN(c2nc(-c3cccc(C)c3OCc3ccc4c(c3C)CCN(C3COC3)C4)cs2)CC[C@H]1C(=O)O [Compound 166] | 82 µg/mL
* Cc1cccc(-c2cccc(N3C[C@@H]4C[C@]4(C(=O)O)C3)n2)c1OCc1ccc2c(c1C)CCN(C1COC1)CC2 [Compound 34] | 67 µg/mL
* Cc1cc(COc2c(C)cccc2-c2csc(N3CC[C@@]4(C(=O)O)C[C@H]4C3)n2)c(C)c2c1CN(C1COC1)CC2 [Compound 102] | 54 µg/mL
* COCc1cc(COc2c(C)cccc2-c2cccc(N3C[C@@H]4C[C@]4(C(=O)O)[C@H]3COC)n2)cc2c1CN(C1CCOC1)CC2 (stereo partly shown) [Compound 280] | 79.3 µg/mL
* COc1cc(COc2c(Cl)cccc2-c2csc(N3CC[C@@H](C(=O)O)[C@@H](OC)C3)n2)cc2c1CN(C1CCOCC1)CC2 [Compound 264] | 51.8 µg/mL
* Cc1ccc(OCc2ccc3c(c2C)CCN(C2COC2)C3)c(-c2cccc(N3C[C@@H]4C[C@]4(C(=O)O)C3)n2)c1 [Compound 36] | 48 µg/mL
* Cc1c(COc2ccccc2-c2cccc(N3CC[C@@]4(C(=O)O)C[C@H]4C3)n2)ccc2c1CCN(C[C@H]1COCCO1)C2 [Compound 9] | 53 µg/mL
* CCO[C@@H]1CN(c2cccc(-c3cc(C)ccc3OCc3ccc4c(c3C)CCN(C3CCOCC3)CC4)n2)CC[C@@H]1C(=O)O [Compound 240] | 117 µg/mL
* Cc1ccc(OCc2cc(C)c3c(c2)CCN(C2CCCOC2)C3)c(-c2csc(N3CC[C@@]4(C(=O)O)C[C@H]4C3)n2)c1 (mixture of isomers) [Compound 121] | 0.69 µg/mL
* COC[C@H]1N(c2cccc(-c3cccc(C)c3OCc3cc(C)c4c(c3)CCN(C3COC3)C4)n2)C[C@@H]2C[C@@]21C(=O)O [Compound 49] | 82 µg/mL
* COc1cc(COc2ccc(C)cc2-c2csc(N3CC[C@@H](C(=O)O)[C@@H](OC)C3)n2)c(F)c2c1CN(C1CCOCC1)CC2 [Compound 271] | 32.8 µg/mL

====

# assay-notes: physchem
# protocol-conditions: pH 4.5, aqueous buffer, kinetic from dmso stock, Solubility (pH 4.5)
# solubility at 24 h listing for each entry below
assay-endpoint: solubility at 24 h

* Cc1ccc(OCc2cc(C)c3c(c2)CCN(C2CCOCC2)C3)c(-c2cccc(N3C[C@@H]4C[C@]4(C(=O)O)C3)n2)c1 | 93 µg/mL
* Cc1c(COc2ccccc2-c2cccc(N3CC[C@@]4(C(=O)O)C[C@H]4C3)n2)ccc2c1CCN(Cc1cncn1C)C2 | 97.5 µg/mL
* CCO[C@@H]1CN(c2cccc(-c3cccc(Cl)c3OCc3cc4c(c(OC)c3)CN(C3CCOCC3)CC4)n2)CC[C@@H]1C(=O)O | 83.9 µg/mL
* CO[C@@H]1CN(c2cccc(-c3cc(C)ccc3OCc3ccc4c(c3C)CCN(C3CCOCC3)CC4)n2)CC[C@@H]1C(=O)O | > 160 µg/mL
* COc1cc(COc2ccc(C)cc2-c2cccc(N3CC[C@H](C(=O)O)[C@H](OC)C3)n2)cc2c1CN(C1CCOCC1)CC2 | 130 µg/mL
* COC[C@H]1N(c2cccc(-c3cccc(C)c3OCc3cc(F)c4c(c3)CCN(C3CCOCC3)CC4)n2)C[C@@H]2C[C@@]21C(=O)O | 124 µg/mL
* CO[C@H]1CN(c2nc(-c3cccc(C)c3OCc3ccc4c(c3)C(C)(C)CN(C3CCOCC3)CC4)cs2)CC[C@H]1C(=O)O | 84.3 µg/mL
* Cc1ccc(OCc2cc(C)c3c(c2C)CCN(C2CCOCC2)C3)c(-c2cccc(N3C[C@@H]4C[C@]4(C(=O)O)C3)n2)c1 | 91 µg/mL
* COC[C@H]1N(c2cccc(-c3cccc(C(F)(F)F)c3OCc3cc(C)c4c(c3)CCN(C3COC3)C4)n2)C[C@@H]2C[C@@]21C(=O)O | 128 µg/mL
* Cc1ccc(OCc2cc(C)c3c(c2)CCN(C2CCOCC2)C3)c(-c2csc(N3CC[C@H](C(=O)O)[C@H](C)C3)n2)c1 | 131 µg/mL
* Cc1ccc(OCc2ccc3c(c2C)CCN(C2CCOCC2)C3=O)c(-c2cccc(N3CC[C@@]4(C(=O)O)C[C@H]4C3)n2)c1 | 10 µg/mL
* COc1cc(COc2c(C)cccc2-c2cccc(N3C[C@@H]4C[C@]4(C(=O)O)C3)n2)cc2c1CN(C1CCOCC1)CC2 | 95 µg/mL
* CO[C@H]1CN(c2nc(-c3cccc(C)c3OCc3ccc4c(c3)[C@@H](C)CN(C3CCOCC3)CC4)cs2)CC[C@H]1C(=O)O | 143 µg/mL
* Cc1cccc(-c2csc(N3CC[C@@]4(C(=O)O)C[C@H]4C3)n2)c1OCc1ccc2c(c1C)CCN(C1CCCOC1)C2 (some centres unmarked) | 67 µg/mL

====

# assay-notes: physchem
# protocol-conditions: pH 4.5, aqueous buffer, kinetic from dmso stock, Solubility (pH 4.5)
assay-endpoint: solubility at 24 h

• Cc1cccc(-c2cccc(N3C[C@@H]4C[C@]4(C(=O)O)C3)n2)c1OCc1ccc2c(c1C)CCN(C1CCOCC1)C2 [Compound 21] = 110 µg/mL
• COC[C@H]1N(c2cccc(-c3cccc(C)c3OCc3ccc4c(c3)CCN(C3CCOC3)C4)n2)C[C@@H]2C[C@@]21C(=O)O (mixture of isomers) [Compound 45] = 100 µg/mL
• CO[C@H]1CN(c2cccc(-c3cccc(C)c3OCc3ccc4c(c3F)CCN(C3CCOCC3)CC4)n2)CC[C@H]1C(=O)O [Compound 277] = 97.1 µg/mL
• O=C(O)[C@@]12CCN(c3cccc(-c4ccccc4OCc4ccc5c(c4)CCN(C4CCOCC4)C5)n3)C[C@@H]1C2 [Compound 1] = 120 µg/mL
• COC[C@H]1N(c2cccc(-c3cccc(C)c3OCc3cc(C)c4c(c3)CN(C3CCOCC3)C4)n2)C[C@@H]2C[C@@]21C(=O)O [Compound 222] = 130 µg/mL
• Cc1c(COc2ccccc2-c2cccc(N3CC[C@@]4(C(=O)O)C[C@H]4C3)n2)ccc2c1CCN(C(C)c1ccccn1)C2 (stereo partly shown) [Compound 306] = 97.1 µg/mL
• COc1cc(COc2c(Cl)cccc2-c2csc(N3CC[C@@H](C(=O)O)[C@@H](OC)C3)n2)cc2c1CN(C1CCOCC1)CC2 [Compound 264] = 56.6 µg/mL
• Cc1ccc(OCc2ccc3c(c2)CCN(C2CCOCC2)C3=O)c(-c2csc(N3CC[C@@]4(C(=O)O)C[C@H]4C3)n2)c1 [Compound 192] = < 0.1 µg/mL
• COc1cc(COc2c(Cl)cccc2-c2csc(N3CC[C@H](C(=O)O)[C@H](OC)C3)n2)cc2c1CN(C1CCOCC1)CC2 [Compound 265] = 53.7 µg/mL
• CCO[C@@H]1CN(c2nccc(-c3cccc(C)c3OCc3cc4c(c(OC)c3)CN(C3CCOCC3)CC4)n2)CC[C@@H]1C(=O)O [Compound 248] = 88.9 µg/mL
• CO[C@@H]1CN(c2nc(-c3cccc(C)c3OCc3ccc4c(c3C)CCN(C3CCOCC3)C4)cs2)CC[C@@H]1C(=O)O [Compound 173] = 71 µg/mL
• CCO[C@@H]1CN(c2cccc(-c3cccc(C)c3OCc3ccc4c(c3C)CCN(C3CCOCC3)CC4)n2)CC[C@@H]1C(=O)O [Compound 239] = 123 µg/mL
• CO[C@H]1CN(c2cccc(-c3cccc(C)c3OCc3cc(C)c4c(c3)CCN(C3CCOCC3)C4)n2)CC[C@@H]1C(=O)O [Compound 298] = 98.1 µg/mL

====

# assay-notes: physchem
# protocol-conditions: pH 6.8, aqueous buffer, kinetic from dmso stock, Solubility (pH 6.8)
This section presents molecules with their documented solubility at 24 h values.
assay-endpoint: solubility at 24 h

- CO[C@H]1CN(c2cccc(-c3cccc(Cl)c3OCc3cc(C)c4c(c3)CCN(C3CCOCC3)C4)n2)CC[C@H]1C(=O)O: 51.9 µg/mL
- Cc1ccc(OCc2ccc3c(c2C)CCN(C2COC2)CC3)c(-c2cccc(N3C[C@@H]4C[C@]4(C(=O)O)C3)n2)c1: 58 µg/mL
- Cc1ccc(OCc2ccc3c(c2)CCN(CC2COCCO2)C3)c(-c2csc(N3CC[C@@]4(C(=O)O)C[C@H]4C3)n2)c1 (stereo partly drawn): 8.1 µg/mL
- CO[C@@H]1CN(c2cccc(-c3cccc(C)c3OCc3ccc4c(c3)C(C)(C)CN(C3COC3)CC4)n2)CC[C@@H]1C(=O)O: 71.6 µg/mL
- CO[C@@H]1CN(c2cccc(-c3cccc(C)c3OCc3cc(C)c4c(c3)CCN(C3CCOCC3)C4)n2)CC[C@H]1C(=O)O: 70.8 µg/mL
- CO[C@H]1CN(c2nc(-c3cccc(Cl)c3OCc3ccc4c(c3C)CCN(C3CCOCC3)C4)cs2)CC[C@H]1C(=O)O: 76.8 µg/mL
